# Test Target: human somatostatin receptor subtype SSTR4 (human) (UniProt P31391)
# Sequence (P31391 whole entry): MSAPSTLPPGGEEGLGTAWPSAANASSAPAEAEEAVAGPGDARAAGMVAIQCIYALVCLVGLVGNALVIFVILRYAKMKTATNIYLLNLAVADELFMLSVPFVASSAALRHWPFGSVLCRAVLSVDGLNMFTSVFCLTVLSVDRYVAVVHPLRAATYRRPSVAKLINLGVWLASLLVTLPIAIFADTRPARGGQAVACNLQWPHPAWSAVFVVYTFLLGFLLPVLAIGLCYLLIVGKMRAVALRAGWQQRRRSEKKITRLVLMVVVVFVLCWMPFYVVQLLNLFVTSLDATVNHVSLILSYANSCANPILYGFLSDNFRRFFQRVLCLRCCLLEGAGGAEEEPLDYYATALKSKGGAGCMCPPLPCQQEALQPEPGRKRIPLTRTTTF
# Assay Explanation: FACS, transfected HEK-293 cells; row normalised to highest
*1 amine or outer side, *2 acyl side, *3 side chain or, on linkers, in order; H or OH if unused. Bridges are numbered along the chain shown (N, C = ends). Primed or numbered codes have the meaning given here. [ ]: non-standard residue; d: D form. N(2-mercaptoethyl)Gly = O=C(CN(CCS[*:3])[*:1])[*:2]; FITC′ = fluorescein isothiocyanate; Orn = NCCC[C@H](N)C(=O)O; GABA = NCCCC(=O)O
Reported Metric: Adjusted binding affinity
API doc: respond with a numeric literal and nothing else, no unit.

{FITC′-GABA}-[dF]RCF[dW][Orn]TF[N(2-mercaptoethyl)Gly]-NH2 (disulfide 3-9) [Compound 5] ... 0.33
XCFWXXTFX (FITC-GABA-DPhe-Cys*-Phe-Trp-DTrp-HomoLys-Thr-Phe-GlyS2*-NH2 (* = S-S bond; HomoLys = homolysine; GlyS2 = N-thioethyl glycine; C-terminal amide)) [Compound 16] ... 0.38
{FITC′-GABA}-[dF]CRFF[dW]KTF[N(2-mercaptoethyl)Gly]-NH2 (disulfide 2-10) [Compound 8] ... 1

Summary for this binder, {FITC′-GABA}-[dF]CYW[dW]KTF[N(2-mercaptoethyl)Gly]-NH2 (disulfide 2-9) [Compound 4] : Adjusted binding affinity is 0.33

Summary for this binder, {FITC′-GABA}-[dF]CFW[dW]RTF[N(2-mercaptoethyl)Gly]-NH2 (disulfide 2-9) [Compound 15] : Adjusted binding affinity is 0.67
